- STUDY_TARGET: T1, soluble human insulin receptor-immunoglobulin heavy chain chimera (sIR-Fc; Bass et al., 1996) (human, UniProt P06213 28-956, limits assumed)
- T1 construct: extracellular domain; also called soluble IR (Bass construct); not shown: immunoglobulin heavy chain constant domains
- ASSAY_DETAILS: phage ELISA
Please provide measured Ratio over Background for the entries that follow.

Qu. Would you mind telling me what Ratio over Background value was observed for HLADGQFHEKFYDWFERQISSRCNDC [H2CA-3-E11-IGFR] ?
Ans. 1

Qu. Would you mind telling me what Ratio over Background value was observed for DRDFCRFYERLTALVGGQVDGGWPC [20C-3-F6-IGFR] ?
Ans. 1.9

Qu. Would you mind telling me what Ratio over Background value was observed for VGRASGFPENFYDWFGRQLSLQSGEQ [H2CA-4-H6-IGFR] ?
Ans. 0.7

Qu. Would you mind telling me what Ratio over Background value was observed for QGGSASFYDAIDRLLRMRIGG [20E2A-4-F11-IGFR] ?
Ans. 1.3

Qu. Would you mind telling me what Ratio over Background value was observed for VGTVAGFYDAIAQLVARASRV [20E2A-3-C7-IGFR] ?
Ans. 1.1

Qu. Would you mind telling me what Ratio over Background value was observed for TLRSPTFYDWLEMVLTHGQGG [20E2B-1-A8-IGFR] ?
Ans. 0.9

Qu. Would you mind telling me what Ratio over Background value was observed for ASSASGFYELLQRLAGLGLEV [20E2B-3-C4-IGFR] ?
Ans. 3.3

Qu. Would you mind telling me what Ratio over Background value was observed for PDLHKGFYAQLAQLIRGQLLS [20E2B-3-E3-IGFR] ?
Ans. 1.3

Qu. Would you mind telling me what Ratio over Background value was observed for QPAPDGFYSALMKLIGRGGVS [20E2B-3-C8-IGFR] ?
Ans. 1.8

Qu. Would you mind telling me what Ratio over Background value was observed for AVRATRFDEAFYDWFVRQISDGQGNK [H2CA-4-F6-IGFR] ?
Ans. 1.1

Qu. Would you mind telling me what Ratio over Background value was observed for PAGPCGFYCGLGLLLHGDQSP [20E2B-4-H8-IGFR] ?
Ans. 0.9

Qu. Would you mind telling me what Ratio over Background value was observed for RFDPFYSYFVNLLGASA [NNRPγ-4-A7-IR] ?
Ans. 1.3

Qu. Would you mind telling me what Ratio over Background value was observed for SAAQLFFQESFYDWFLRQVAESSQPN [H2CA-4-F11-IGFR] ?
Ans. 1

Qu. Would you mind telling me what Ratio over Background value was observed for RFSTDGFYQYLLALVGGGPVG [20E2B-1-A11-IGFR] ?
Ans. 1

Qu. Would you mind telling me what Ratio over Background value was observed for GCEVIVEEGDSADPFYHKLSELCQGS [B6Hα-2-D1-IR] ?
Ans. 1.3

Qu. Would you mind telling me what Ratio over Background value was observed for SRAKVEAEMPDSGDPFYHKLSELLASG [B6Hα-1-A3-IR] ?
Ans. 0.8

Qu. Would you mind telling me what Ratio over Background value was observed for KLHNLMFYYGLQRLVWGAGLG [20E2B-4-H3-IGFR] ?
Ans. 1.1

Qu. Would you mind telling me what Ratio over Background value was observed for VNQSGSIHENFYDWFERQVSHQRGVR [H2CA-4-F10-IGFR] ?
Ans. 1

Qu. Would you mind telling me what Ratio over Background value was observed for GIISQSCPESFYDWFAGQVSDPWWCW [H2CA-4-G9-IGFR] ?
Ans. 0.6

Qu. Would you mind telling me what Ratio over Background value was observed for LRRQAPVEENFYDWFVRQVSGDRVGG [H2CA-3-D7-IGFR] ?
Ans. 0.8

Qu. Would you mind telling me what Ratio over Background value was observed for GCAVVEEAERSRGDPFYHKLSELIQGC [B6Hα-3-E7-IR] ?
Ans. 1.3

Qu. Would you mind telling me what Ratio over Background value was observed for EGSGFYGYFFSLLGLQG [NNRPγ-4-A9-IR] ?
Ans. 1.4

Qu. Would you mind telling me what Ratio over Background value was observed for SQAGSAFYAWFDQVLRTVHSA [20E2Bβ-4-G6-IR] ?
Ans. 1.9

Qu. Would you mind telling me what Ratio over Background value was observed for GGTEVDFYRALERLVRGQLGL [20E2B-3-D8-IGFR] ?
Ans. 1.6

Qu. Would you mind telling me what Ratio over Background value was observed for PGTDLGFYQALRCVVIQGACD [20E2B-2-B2-IGFR] ?
Ans. 0.6

Qu. Would you mind telling me what Ratio over Background value was observed for RGMKEEVLVGGSTDPFYHKLSELLQGS [B6Hα-3-F11-IR] ?
Ans. 1.6

Qu. Would you mind telling me what Ratio over Background value was observed for PPLASDLDVQFYGWFVQQVSPPGRGG [H2CA-2-B3-IGFR] ?
Ans. 1

Qu. Would you mind telling me what Ratio over Background value was observed for RCQGTGFYTCIQELIGFGDPD [20E2B-4-H9-IGFR] ?
Ans. 0.9

Values were extracted from patent US20070265189A1.
